- testSummary: CCTE_Shafer_MEA_dev_network_spike_duration_std: CCTE's Neural Network Formation Assay for Standard Deviation of Network Spike Duration, Shafer Lab (AID 2284052);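 note: area under curve of spike duration SD across recording days 5 to 12; hits are decreases in network spike duration SD versus DMSO vehicle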
- Experimental: CCTE_Shafer_MEA_dev assay is conducted using Axion Biosystems 48 well microelectrode array (MEA) plates and Maestro recording system. Each well of the MEA plate contains a grid of 16 microelectrodes embedded in the culture surface. Electrically active cells, such as neurons, can be cultured over the electrodes, and electrical activity in these cells can be recorded extracellularly. […]
The source made the active and inactive calls. Rule for the calls: active = hit-call score of the fitted dose curve at least 0.9, where 1 is the maximum; inactive = score below 0.9.
Bench note: report the call from 1 (yes) for active, 0 (no) for inactive

# compound, label
records = [
    ("c1ccc2cc3c4ccccc4c4ccccc4c3cc2c1", "0 (no)"),
]

Would you mind telling me which call this test gave CNCCC(Oc1ccc(C(F)(F)F)cc1)c1ccccc1 (configuration not stated) ?
1 (yes)

Would you mind telling me which call this test gave "[Cl-].[Cl-].[NH2-].[NH2-].[Pt+4]" ?
0 (no)

Would you mind telling me which call this test gave "CC1(C)S[C@@H]2[C@H](NC(=O)[C@H](N)c3ccccc3)C(=O)N2[C@H]1C(=O)O" ?
0 (no)

Would you mind telling me which call this test gave CC(C)(C)NCC(O)c1cc(O)cc(O)c1 (configuration not stated) ?
0 (no)

Would you mind telling me which call this test gave "C[C@@H]1C[C@H]2[C@@H]3CCC4=CC(=O)C=C[C@]4(C)[C@@]3(F)[C@@H](O)C[C@]2(C)[C@@]1(O)C(=O)CO" ?
0 (no)

Would you mind telling me which call this test gave "c1cc2ccc3ccc4ccc5cccc6c(c1)c2c3c4c56" ?
0 (no)

FYI, the data here is from PubChem BioAssay (EPA / NIEHS).
